Biological target: human cyclin D1-CDK4 (Homo sapiens)
Sequence (P11802 whole entry): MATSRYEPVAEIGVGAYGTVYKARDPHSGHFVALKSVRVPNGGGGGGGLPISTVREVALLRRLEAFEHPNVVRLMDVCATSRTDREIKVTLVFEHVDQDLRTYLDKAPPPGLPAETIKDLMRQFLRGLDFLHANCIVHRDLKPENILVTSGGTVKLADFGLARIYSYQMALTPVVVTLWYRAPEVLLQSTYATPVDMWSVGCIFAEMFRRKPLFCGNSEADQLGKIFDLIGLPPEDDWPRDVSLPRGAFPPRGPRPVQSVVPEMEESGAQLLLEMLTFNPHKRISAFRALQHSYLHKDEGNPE
Sequence (P24385 whole entry partner): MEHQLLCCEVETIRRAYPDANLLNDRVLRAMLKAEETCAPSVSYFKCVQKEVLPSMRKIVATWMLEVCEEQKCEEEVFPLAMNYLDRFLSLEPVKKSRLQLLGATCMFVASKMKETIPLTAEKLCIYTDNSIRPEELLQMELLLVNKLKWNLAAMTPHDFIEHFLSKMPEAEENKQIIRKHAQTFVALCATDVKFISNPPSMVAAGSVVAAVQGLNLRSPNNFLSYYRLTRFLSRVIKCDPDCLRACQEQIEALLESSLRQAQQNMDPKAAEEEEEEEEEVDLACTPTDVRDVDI
Test: FlashPlate kinase assay, cyclin D1-CDK4
Settings: Rb protein substrate, 1 μM ATP
pIC50: −log10 of the molar value.
observation.type: pIC50

Worked cases, pIC50 given:
1) CCN(CC)c1ccc(C(=O)c2sc(Nc3ccc(N4CCN(C(C)=O)CC4)cc3)nc2N)cc1 [Example 48] : 8.00
2) CN1CCN(c2ccc(Nc3nc(N)c(C(=O)c4ccc(N5CCC(O)CC5)c([N+](=O)[O-])c4)s3)cc2)CC1 [Example 64] : 8.05
3) Nc1nc(Nc2ccc(N3CCN(CCO)CC3)cc2)sc1C(=O)c1cc(F)cc(F)c1 [Example 52] : 7.55
4) COc1cccc(C(=O)c2sc(Nc3ccc(N4CCN(CCO)CC4)cc3)nc2N)c1 [Example 53] : 8.22

A. Nc1nc(Nc2ccc(N3CCN(CCO)CC3)cc2)sc1C(=O)c1ccc2c(c1)OCCO2 [Example 49]
B. CN1CCN(c2ccc(Nc3nc(N)c(C(=O)c4ccc5c(c4)OCCCO5)s3)cc2)CC1 [Example 29]
Lookup: Between A and B , whose measured pIC50 reads higher? Write the label of whichever entry you select.
Found: A
(A: 7.82, B: 6.99)

I. COc1cc(OC)cc(C(=O)c2sc(Nc3ccc(N4CCN(C)CC4)c(F)c3)nc2N)c1 [Example 39]
II. CN1CCN(c2ccc(Nc3nc(N)c(C(=O)c4ccc(NCCO)c([N+](=O)[O-])c4)s3)cc2)CC1 [Example 57]
Lookup: Between I and II , whose measured pIC50 reads higher? Write the label of whichever entry you select.
Found: II
